Measured drug sensitivity score values are reported for all entries that follow.
# Tested on: MDA-MB-436
# experimental details: drug sensitivity score (DSS), CellTiter-Blue viability (DSS (AUC-based score)); higher = stronger viability inhibition; extreme values may be limits of the assay
# reported conditions: incubation time: 72 h
# output: bare number, no unit

Q: Which drug sensitivity score value is on record for "CO[C@H]1C[C@@H]2CC[C@@H](C)[C@@](O)(O2)C(=O)C(=O)N2CCCC[C@H]2C(=O)O[C@H]([C@H](C)C[C@@H]2CC[C@@H](OP(C)(C)=O)[C@H](OC)C2)CC(=O)[C@H](C)/C=C(\C)[C@@H](O)[C@@H](OC)C(=O)[C@H](C)C[C@H](C)/C=C/C=C/C=C/1C" ?
A: 1.25

Q: Which drug sensitivity score value is on record for "COc1cc2ncnc(Nc3ccc(F)c(Cl)c3)c2cc1OCCCN1CCOCC1" ?
A: 0

---

# System: MDA-MB-468
# experimental details: drug sensitivity score (DSS), CellTiter-Glo (DSS (AUC-based score)); higher = stronger drug effect (viability inhibition or cytotoxicity); extreme values may be limits of the assay
# reported conditions: incubation time: 72 h
Parameter threshold = 4. Response is Condition met when drug sensitivity score meets or exceeds it, else Condition not met.

| compound | assigned class |
| --- | --- |
| O=C(/C=C/c1cccc(S(=O)(=O)Nc2ccccc2)c1)NO | Condition met |
| Cc1[nH]c2ccccc2c1CCNCc1ccc(/C=C/C(=O)NO)cc1 | Condition met |
| NC(=O)c1ccc(I)c([N+](=O)[O-])c1 | Condition not met |
| COCC[n+]1c2c(n(Cc3cnccn3)c1C)C(=O)c1ccccc1C2=O | Condition met |

Q: Form field: drug sensitivity score at least 4? Entry: CNC(=O)c1ccc(N2C(=S)N(c3ccc(C#N)c(C(F)(F)F)c3)C(=O)C2(C)C)cc1F [Enzalutamide]
A: Condition not met

Q: Form field: drug sensitivity score at least 4? Entry: "COc1cc(OC2CCN(C)CC2)ccc1Nc1ncc2c(n1)n(C1CCCC1)c(=O)n2C"
A: Condition not met

---

Measured normalised viability values are reported for all entries that follow.
# Test system: BT-474
# experimental details: normalised viability (% of control), CellTiter-Blue; higher = more viable cells (about 100 = DMSO control)
# reported conditions: 10000 nM; incubation time: 72 h
Just the number please, in %, no unit attached.

| test smiles | study system | normalised viability [%] |
| --- | --- | --- |
| CN(C)CCOc1ccc(/C(=C(/CCCl)c2ccccc2)c2ccccc2)cc1 | BT-474 | 92.4 |
| Cc1cc(Nc2cc(CN3CCOCC3)c3nc(C)c(Cc4ccc(Cl)cc4F)n3n2)n[nH]1 | BT-474 | 49.7 |
| CN(C)c1nc(N(C)C)nc(N(C)C)n1 | BT-474 | 138 |
| CC(C)C[C@@H](C(=O)N[C@H](C(=O)OC1CCCC1)c1ccccc1)[C@H](O)C(=O)NO | BT-474 | 105 |
| O=C(Nc1cccnc1)N1CCC(Cc2cccc(Oc3ccc(C(F)(F)F)cn3)c2)CC1 | BT-474 | 40.5 |

Q: Which normalised viability value is on record for "C=C1C[C@@H]2[C@H](CC[C@]3(C)C(=O)CC[C@@H]23)[C@@]2(C)C=CC(=O)C=C12" ?
A: 103

Q: Which normalised viability value is on record for "COc1cc2/c(=N/c3ccc(Br)cc3F)nc[nH]c2cc1OCC1CCN(C)CC1" ?
A: 8.47
